# credit: patent US20200230168

ASSAYED TARGET: hSSB1 (Homo sapiens, UniProt Q9BQ15 Q9BQ15:1-211)
Sequence (Q9BQ15 whole entry, one chain of several): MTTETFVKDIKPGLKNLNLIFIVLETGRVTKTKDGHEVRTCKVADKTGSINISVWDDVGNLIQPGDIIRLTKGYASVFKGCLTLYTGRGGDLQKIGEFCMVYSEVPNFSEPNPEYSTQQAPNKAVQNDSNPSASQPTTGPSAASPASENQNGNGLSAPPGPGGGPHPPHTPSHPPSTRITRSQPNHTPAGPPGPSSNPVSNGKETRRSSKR
ASSAY OVERVIEW: SPR; LSA_In3E3 = 1
Consider the following binders; for each one, report its binding signal.
Give bare numbers, in normalized Rmax.

Recorded results for 2 binders are shown here.
[
  {
    "BINDER": "CUCUUGGCUGAGCCCAUCUC (ssRNA, 2'-OMe all, PS all) [cdca3_A_ATG-3]",
    "VALUE UNIT": "normalized Rmax",
    "EXPERIMENTAL RESULT": 1.3
  },
  {
    "BINDER": "GUGCAUGGAAUCACGGAGUG (ssRNA, PS all, no sugar modification) [Open_A PS only (DKLS669778)]",
    "VALUE UNIT": "normalized Rmax",
    "EXPERIMENTAL RESULT": 1.3
  }
]

Moving on to another binder below.
Documented binding signal of CAGAGGCAGCAGUACGACGG (ssRNA, 2'-OMe all, PS all) [LSA_ATG] : 1.1
